- testedOn: UniProt P0DTD1
- protocolSummary: COVID-19 (nCoV-2019, SARS-CoV2) Mpro enzymatic assay
- Format: biochemical
- statedConditions: 25 nM Mpro, 25 μM substrate; read-out: COVID-19 Mpro IC50
pIC50: −log10 of the molar value.
// reported pIC50 per item

query: Reported pIC50, compound CC(C)(C)c1ccc(N(C(=O)[C@H]2NCC2(C)C)[C@H](C(=O)NC2CCCCC2)c2cccnc2)cc1 [Compound 136b] : ____
result: < 4.52

query: Query CO[C@@H]1C[C@H](C(=O)N(c2ccc(S(F)(F)(F)(F)F)cc2)C(C(=O)NC2CCC(F)(F)CC2)c2cnccc2C(F)(F)F)N(C#N)C1 (single isomer, unassigned) [1202 Isomer 1] next
result: > 5.70

query: Query N#CN1CC[C@H]2C[C@]21C(=O)N(c1ccc(S(F)(F)(F)(F)F)cc1)C(C(=O)NC1CCC(F)(F)CC1)c1cnccc1C(F)(F)F (stereo partly drawn) next
result: < 4.52
